Below is a list of entries, each paired with its recorded Kd value.
Target: T1, cynomolgus monkey CTLA4-his protein (Acro biosystems, Cat#CT4-C5227) (cynomolgus monkey, UniProt G7PL88 36-161)
T1 construct: bought recombinant protein; also called Cynomolgus CTLA4-his; not shown: his tag
T1 sequence: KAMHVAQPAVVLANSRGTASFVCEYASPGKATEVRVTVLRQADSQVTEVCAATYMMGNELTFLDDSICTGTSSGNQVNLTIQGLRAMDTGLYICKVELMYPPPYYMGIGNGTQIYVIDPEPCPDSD
Experiment: SPR, Biacore T200; antibody captured, CTLA4-his as analyte
Use nM as the unit, but write only the number.

Sample records with Kd:
Binder: mouse anti-CTLA4 monoclonal antibody C1G4 (antibody, V domains shown, mouse mAb purified from hybridoma supernatant) VH: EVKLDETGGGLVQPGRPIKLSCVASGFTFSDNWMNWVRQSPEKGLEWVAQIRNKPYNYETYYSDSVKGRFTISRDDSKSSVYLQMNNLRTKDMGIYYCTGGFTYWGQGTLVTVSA VL: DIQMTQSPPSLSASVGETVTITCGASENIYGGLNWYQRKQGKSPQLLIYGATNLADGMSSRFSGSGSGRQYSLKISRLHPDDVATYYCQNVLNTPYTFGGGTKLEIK
Number: 1.71
--
Binder: mouse anti-CTLA4 monoclonal antibody D1A7 (antibody, V domains shown, mouse mAb purified from hybridoma supernatant) VH: QVTLKESGPGMLQPSQTLSLTCSFSGFSLSSSKLGVGWIRQPAGKGLEWLAHIWWNDDNYYVPSLKSRLTISKDTSNNQVFLKITNVDAADTATYYCVQVPYYTTQPWFAYWGQGTLVTVSA VL: DIQMTQSPASLSASVGETVTITCRASGNIHNYLAWYLQNQGRSPQLLVYNTETLADGVSSRFSGSGSGTQYFLKISSLQPEDFGTYYCQHLWSTPWTFGGGTKLEIK
Number: 1.66
--
Binder: mouse anti-CTLA4 monoclonal antibody D1H3 (antibody, V domains shown, mouse mAb purified from hybridoma supernatant) VH: QVQLQQPGAELVNPGASVKLSCKASGYTFTSYWLHWVKQRPGRGLEWIGRIDPNRGTIYYNEKFNNKATVTVDKPSNTAYMQLSRLTLEDSAVYYCARGGSNFYAMDYWGQGTSVTVSS VL: DIQMTQSPASLSASVGETVTITCRTSENIYSYLAWYQQKQGESPQLLVYNAKTLAEGVPSRFSGSGSGTQFSLKINSLQPEDFGSYYCQNHDGIPFTFGSGTKLEIK
Number: 2.07

QUERY: State the recorded Kd for this entry: mouse anti-CTLA4 monoclonal antibody D1D5 (antibody, V domains shown, mouse mAb purified from hybridoma supernatant) VH: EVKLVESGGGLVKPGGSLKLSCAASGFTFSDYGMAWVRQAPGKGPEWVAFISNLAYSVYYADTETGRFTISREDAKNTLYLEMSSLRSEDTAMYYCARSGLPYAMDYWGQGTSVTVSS VL: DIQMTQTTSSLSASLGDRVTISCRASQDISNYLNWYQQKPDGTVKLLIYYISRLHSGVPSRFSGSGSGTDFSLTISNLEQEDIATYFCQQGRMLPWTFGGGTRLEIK
RESULT: 4.67

Reference source: patent US20230212304A1
